Tested on: CP286
measurement.protocol: qHTS profiling for inhibitors of Plasmodium falciparum proliferation (AID 504749); note: nearly all actives have a fitted effect of over 60% in size
condition: P. falciparum in erythrocytes, SYBR Green DNA, 72 h; series mostly up to 28.7 µM
Procedure: NIH National Institute of Allergy and Infectious Diseases [NIAID] NIH Chemical Genomics Center [NCGC] […] Because mature erythrocytes lack DNA, only Plasmodium-derived DNA is detected. NCGC Assay Protocol Summary: The SYBR Green viability assay was adapted from a method described previously (Plouffe et al., 2008). […] The following morning, fluorescence intensity at 485(14) nm excitation and 535(25) nm emission wavelengths was measured on an EnVision (Perkin Elmer) plate reader. […]
Records with an inconclusive call do not appear. Activity calls are given as the source filed them. Calls come from the whole dose curve; as a rule, active = well fitted inhibition curve with a large enough effect; inconclusive = small, poorly fitted or top-dose-only effect; inactive = flat fitted curve, though single readings scatter.
Reply using exactly one outcome from True for active, False for inactive

Some solved cases for reference:
CC(C)c1nc(N(C)S(C)(=O)=O)nc(-c2ccc(F)cc2)c1/C=C/C(O)CC(O)CC(=O)O (centres undefined) : False
CC(C)=CCC/C(C)=C/CC/C(C)=C/CC/C=C(\C)CC/C=C(\C)CCC=C(C)C : False
CC(C)C1=CC2=CC[C@@H]3[C@](C)(CCC[C@@]3(C)C(=O)O)[C@H]2CC1 : False
CCOC(=O)Cc1ccc(-c2ccccc2)cc1 : False

Prompt: Check the results log: what was the call for Cn1c(=O)c2c(ncn2CCOC(=O)C(C)(C)Oc2ccc(Cl)cc2)n(C)c1=O ?
Response: False

Prompt: Check the results log: what was the call for CCCCCCCCCCCCCCCCCCCCCC(=O)Nc1ccn([C@@H]2O[C@H](CO)[C@@H](O)[C@@H]2O)c(=O)n1 ?
Response: False
